# TARGET UNDER TEST: HLA-B*5301 (human)
# ASSAY PROCEDURE: competition vs 125I-labelled probe peptide, purified HLA, gel filtration
Record form. Attribute: IC50. Fill in for each entry.
Give bare numbers, in nM.

- FPAARPAGATI (11-mer analog of the HER2/neu peptide starting at position 1157) [Her2/neu.1157.F1I11]: 332

Record IC50 for all entries; do not skip any.
1. FPYDGIPAREI (11-mer B7 supermotif analog of the HER2/neu peptide starting at position 921) [Her2/neu.921.F1I11]
2. FPAARPAGATL (11-mer analog of the HER2/neu peptide starting at position 1157) [Her2/neu.1157.F1]
3. FPLDSTFYRSI (11-mer analog of the HER2/neu peptide starting at position 998) [Her2/neu.998.F1I11]

Return:
1: 465; 2: 2910; 3: 620

Cited source: patent US20040018971A1
